Biological target: T1, human LAG3-His tagged recombinant protein (human)
T1 construct: also called human LAG3-His protein; recombinant human LAG3
T1 sequence (P18627 23-450): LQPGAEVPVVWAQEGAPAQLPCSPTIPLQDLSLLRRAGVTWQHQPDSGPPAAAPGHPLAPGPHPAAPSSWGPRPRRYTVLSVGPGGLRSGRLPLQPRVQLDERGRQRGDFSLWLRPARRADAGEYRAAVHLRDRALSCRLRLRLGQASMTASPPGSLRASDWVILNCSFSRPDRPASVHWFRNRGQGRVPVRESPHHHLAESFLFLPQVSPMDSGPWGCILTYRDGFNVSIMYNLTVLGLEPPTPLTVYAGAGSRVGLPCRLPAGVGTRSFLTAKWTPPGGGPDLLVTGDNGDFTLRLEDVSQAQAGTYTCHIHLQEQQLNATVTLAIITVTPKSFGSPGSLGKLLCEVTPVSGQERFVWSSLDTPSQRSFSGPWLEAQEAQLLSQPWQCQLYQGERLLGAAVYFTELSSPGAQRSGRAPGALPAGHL
Assay: SPR, Biacore T200; antibody captured, human LAG3-His as analyte, 1:1 Langmuir fit; n = 2
Quantity: Kd (nM)
Please state the figure in nM; there is no need to write the unit.

Reported Kd ( ADI-12126 (Q1E, M57T, M115L) IgG4 S228P/Kappa (antibody, V domains shown) VH: EVQLVQSGAEVKKPGASVKVSCKASGYTFTGYYMHWVRQAPGQGLEWMGWINANSGTTNYAQKFQGRVTMTRDTSISTAYMELSRLRSDDTAVYYCARDIYDSSDQLNVWGQGTLVTVSS VL: EIVLTQSPATLSLSPGERATLSCRASQSVSSYLAWYQQKPGQAPRLLIYDASNRATGIPARFSGSGSGTDFTLTISSLEPEDFAVYYCQQASIWPLTFGGGTKVEIKR ) = 0.065
